protocol.details: Assessment of solubility (McIlvaine buffers, 24 h shake, UPLC-UV)
Format: physicochemical
assay.conditions: pH 2.2, aqueous buffer, kinetic from dmso stock
value.kind: solubility at 24 h (mg/mL)

# molecule, solubility at 24 h (mg/mL)
measured = [
    ("CCOc1c(C(=O)O)cnn1-c1cccc(-c2cccc(C)c2OCc2ccc3c(c2C)CCN(C[C@H]2CCO2)CC3)n1 [Compound 226]", 0.098),
    ("CCc1cc(COc2c(C)cccc2-c2cccc(-n3ncc(C(=O)O)c3OC)n2)cc2c1CN(C1COC1)CC2 [Compound 249]", 0.094),
    ("CCOc1c(C(=O)O)cnn1-c1cccc(-c2cccc(C)c2OCc2ccc3c(c2C)CCN(C[C@@H]2CCCO2)CC3)n1 [Compound 235]", 0.1),
    ("COc1c(C(=O)O)cnn1-c1cccc(-c2cccc(C)c2OCc2ccc3c(c2)CCN(C2CC4CCC(C2)O4)C3)n1 (stereo not drawn) [Compound 87]", 0.11),
    ("COc1c(C(=O)O)cnn1-c1cccc(-c2cccc(C)c2OCc2cc(F)c3c(c2)CCN(C[C@H]2CCCCO2)C3)n1 [Compound 229]", 0.1),
    ("COc1c(C(=O)O)cnn1-c1cccc(-c2cccc(C)c2OCc2ccc3c(c2)CCN(C2CCC(F)(F)CC2)C3)n1 [Compound 5]", 0.098),
    ("COc1c(C(=O)O)cnn1-c1cccc(-c2cccc(C)c2OCc2ccc3c(c2Cl)CCN(C2CCOC2)C3)n1 (stereo not drawn) [Compound 22]", 0.097),
    ("COc1c(C(=O)O)cnn1-c1cccc(-c2cccc(C(F)(F)F)c2OCc2ccc3c(c2)CCN(C2COC2)C3)n1 [Compound 9]", 0.094),
    ("COc1c(C(=O)O)cnn1-c1cccc(-c2cccc(C)c2OCc2ccc3c(c2)CN(CC2CC(F)(F)C2)C3)n1 [Compound 82]", 0.12),
    ("CCOc1c(C(=O)O)cnn1-c1cccc(-c2cccc(C)c2OCc2ccc3c(c2C)CCN(C[C@H]2COCCO2)C3)n1 [Compound 170]", 0.12),
    ("CCOc1c(C(=O)O)cnn1-c1cccc(-c2cccc(C)c2OCc2cc(C)c3c(c2)CCN(CC2(C)COC2)C3)n1 [Compound 200]", 0.1),
    ("COc1c(C(=O)O)cnn1-c1cccc(-c2cccc(C)c2OCc2ccc3c(c2F)CCN(C[C@@H]2COCCO2)C3)n1 [Compound 231]", 0.12),
    ("COc1c(C(=O)O)cnn1-c1cccc(-c2cccc(C)c2OCc2ccc3c(c2)C(C)(C)CN(C2CCOC2)C3)n1 (stereo not drawn) [Compound 217]", 0.097),
    ("COCCOc1c(C(=O)O)cnn1-c1cccc(-c2cccc(C)c2OCc2ccc3c(c2C)CCN(C2CCOC2)C3)n1 (stereo not drawn) [Compound 150]", 0.1),
    ("COc1c(C(=O)O)cnn1-c1cccc(-c2cccc(C)c2OCc2cc(F)c3c(c2)CCN(C2CCOCC2)C3)n1 [Compound 201]", 0.087),
    ("CCOc1c(C(=O)O)cnn1-c1cccc(-c2cccc(C)c2OCc2ccc3c(c2C(F)(F)F)CCN(C2CCOCC2)C3)n1 [Compound 165]", 0.12),
    ("CCOc1c(C(=O)O)cnn1-c1cccc(-c2cccc(C)c2OCc2ccc3c(c2C)CCN([C@@H]2CCCOC2)C3)n1 [Compound 128]", 0.093),
    ("CCOc1c(C(=O)O)cnn1-c1cccc(-c2cccc(C)c2OCc2ccc3c(c2C)CCN(C2COC2)C3)n1 [Compound 164]", 0.1),
]

* * *

protocol.details: Assessment of solubility (McIlvaine buffers, 24 h shake, UPLC-UV)
Type: physicochemical
assay.conditions: pH 2.2, aqueous buffer, kinetic from dmso stock
value.kind: solubility at 24 h (µg/mL)

# molecule, value.kind, uom, measurement
measured = [
    ("COc1c(C(=O)O)cnn1-c1cccc(-c2cccc(C)c2OCc2ccc3c(c2C)CCN(C[C@@H]2CCOC2)C3)n1 [Compound 191]", "solubility at 24 h", "µg/mL", 100),
    ("CCOc1c(C(=O)O)cnn1-c1cccc(-c2cccc(C)c2OCc2ccc3c(c2C)CCN(CC2(F)COC2)C3)n1 [Compound 208]", "solubility at 24 h", "µg/mL", 82),
    ("Cc1cccc(-c2cccc(-n3ncc(C(=O)O)c3OC(C)C)n2)c1OCc1ccc2c(c1)CCN(C1CCC(F)(F)CC1)C2 [Compound 2]", "solubility at 24 h", "µg/mL", 110),
    ("CCOc1c(C(=O)O)cnn1-c1cccc(-c2cccc(C)c2OCc2ccc3c(c2CC)CCN(C2CCOCC2)C3)n1 [Compound 154]", "solubility at 24 h", "µg/mL", 85),
    ("CCOc1c(C(=O)O)cnn1-c1cccc(-c2cccc(C)c2OCc2ccc3c(c2)CCN(C2CCOCC2)C3)n1 [Compound 77]", "solubility at 24 h", "µg/mL", 96),
]

1: COc1c(C(=O)O)cnn1-c1cccc(-c2cccc(C)c2OCc2ccc3c(c2)C(C)(C)CN(C2CCCOC2)C3)n1 (stereo not drawn) [Compound 218]
2: COc1c(C(=O)O)cnn1-c1cccc(-c2cccc(C)c2OCc2ccc3c(c2C)CCN(C[C@@H]2CCCO2)CC3)n1 [Compound 223]
QUERY: Record comparison, field solubility at 24 h: mark the lower of 1 and 2 . Pick one and reply with its label.
RESULT: 2
(2: 81 µg/mL, 1: 120 µg/mL)

* * *

protocol.details: Assessment of solubility (McIlvaine buffers, 24 h shake, UPLC-UV)
Assay type: physicochemical
assay.conditions: pH 4.5, aqueous buffer, kinetic from dmso stock
value.kind: solubility at 24 h (µg/mL)

Solved cases below.
# molecule, measurement
measured = [
    ("CCOc1c(C(=O)O)cnn1-c1cccc(-c2cccc(C)c2OCc2ccc3c(c2)CCN(C2CCOCC2)C3)n1 [Compound 77]", 83),
    ("CCOc1c(C(=O)O)cnn1-c1cccc(-c2cccc(C)c2OCc2ccc3c(c2C)CCN(C[C@H]2COC(C)(C)O2)C3)n1 [Compound 179]", 92),
    ("COc1c(C(=O)O)cnn1-c1cccc(-c2cccc(C)c2OCc2ccc3c(c2C(F)(F)F)CCN(C2CCOCC2)C3)n1 [Compound 166]", 51),
    ("CCOc1c(C(=O)O)cnn1-c1cccc(-c2cccc(C)c2OCc2ccc3c(c2C)CCN(C[C@@H]2CCO2)CC3)n1 [Compound 228]", 78),
    ("COc1c(C(=O)O)cnn1-c1cccc(-c2cccc(C)c2OCc2ccc3c(c2C)CCN(C2CCCOC2)C3)n1 (centres unmarked) [Compound 238]", 55),
]

1: CCOc1c(C(=O)O)cnn1-c1cccc(-c2cccc(C)c2OCc2ccc3c(c2CC)CCN(C2CCOCC2)C3)n1 [Compound 154]
2: CC[C@H](C)Oc1c(C(=O)O)cnn1-c1cccc(-c2cccc(C)c2OCc2ccc3c(c2C)CCN(C2CCOCC2)C3)n1 [Compound 136]
3: COCCOc1c(C(=O)O)cnn1-c1cccc(-c2cccc(C)c2OCc2ccc3c(c2C)CCN(C2CCOC2)C3)n1 (centres unmarked) [Compound 150]
QUERY: Order the records so the highest solubility at 24 h appears first and the lowest last. Write the labels, ordered according to the request.
RESULT: 2, 3, 1
(2: 100 µg/mL, 3: 67 µg/mL, 1: 36 µg/mL)

a: COc1c(C(=O)O)cnn1-c1cccc(-c2cccc(C)c2OCc2ccc3c(c2F)CCN(C[C@H]2COCCO2)C3)n1 [Compound 234]
b: CCc1cc(COc2c(C)cccc2-c2cccc(-n3ncc(C(=O)O)c3OC)n2)cc2c1CN(C1COC1)CC2 [Compound 249]
QUERY: Please indicate which has the smaller reported solubility at 24 h: a , or b . Choose, then provide that item's label.
RESULT: b

* * *

protocol.details: Assessment of solubility (McIlvaine buffers, 24 h shake, UPLC-UV)
Assay type: physicochemical
assay.conditions: pH 6.8, aqueous buffer, kinetic from dmso stock
Description: Solubility is measured by the following method. 100 uL, 10 mM DMSO stock solution of each compound is prepared in a 96 well plate format. The experiment is done in single determination at 3 pH values (2.2, 4.5 and 6.8). For each pH and one reference, 40 uL of each compound is needed. McIlvaine pH 2.2: To 2.076 g citric acid monohydrate and 0.043 g Na2HPO4×2H2O add 100 ml deionized water […] The samples are measured with UPLC-UV using the chromatographic method described below. […]
value.kind: solubility at 24 h (µg/mL)

# chem.smiles, solubility at 24 h, µg/mL
data = [
    ("COc1c(C(=O)O)cnn1-c1cccc(-c2cccc(C)c2OCc2ccc3c(c2)CCN([C@H]2CC[C@H](OC)CC2)C3)n1", 81),
    ("CCOc1c(C(=O)O)cnn1-c1cccc(-c2cccc(C)c2OCc2ccc3c(c2C)CCN([C@@H]2CCCOC2)C3)n1", 78),
    ("COc1c(C(=O)O)cnn1-c1cccc(-c2cccc(C(F)(F)F)c2OCc2ccc3c(c2)CN(C2CCOCC2)C3)n1", 81),
]

Attribution: patent US8906904B2
